# System name: monkey DLL3 on CHO-K1-cyno DLL3 cells (cynomolgus monkey)
# Sequence (chain, as listed by the source limits assumed): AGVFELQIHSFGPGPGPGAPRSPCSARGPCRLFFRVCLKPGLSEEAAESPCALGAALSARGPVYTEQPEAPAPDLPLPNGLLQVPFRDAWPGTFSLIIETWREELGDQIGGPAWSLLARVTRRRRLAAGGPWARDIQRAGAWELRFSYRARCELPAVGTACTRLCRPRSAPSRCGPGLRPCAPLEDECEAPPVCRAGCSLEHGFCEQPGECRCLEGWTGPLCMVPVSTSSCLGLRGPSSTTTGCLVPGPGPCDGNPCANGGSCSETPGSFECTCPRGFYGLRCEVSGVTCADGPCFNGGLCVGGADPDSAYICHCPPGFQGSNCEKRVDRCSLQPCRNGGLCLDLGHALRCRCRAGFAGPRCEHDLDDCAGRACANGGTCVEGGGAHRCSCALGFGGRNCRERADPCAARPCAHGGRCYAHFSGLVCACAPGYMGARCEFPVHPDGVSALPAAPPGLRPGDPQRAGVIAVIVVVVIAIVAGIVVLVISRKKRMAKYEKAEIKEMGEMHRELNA
# Method: FACS, CHO-K1-cyno DLL3 cells, 100 nM antibody
Metric: MFI (MFI)
Provide only the numeric value, understood in MFI.

Before answering, review these 2 worked examples.
Binder | Reported result
Hab006VL1VH4-hFc (scFv, part only; not given: VL-VH linker and human IgG1 Fc, V domains shown, not shown: another chain or arm of the molecule; a dimerising Fc or GST; small tags and cut ends) VL: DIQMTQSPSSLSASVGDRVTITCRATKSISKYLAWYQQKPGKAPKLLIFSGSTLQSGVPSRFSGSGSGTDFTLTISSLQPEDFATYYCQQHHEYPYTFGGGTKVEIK VH: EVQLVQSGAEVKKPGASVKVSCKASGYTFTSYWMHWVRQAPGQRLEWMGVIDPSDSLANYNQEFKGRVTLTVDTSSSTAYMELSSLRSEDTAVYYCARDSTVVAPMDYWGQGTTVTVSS | 9720
Hab006VL4VH2-hFc (scFv, part only; not given: scFv linker and human IgG1 Fc, V domains shown, not shown: another chain or arm of the molecule; a dimerising Fc or GST; small tags and cut ends) VL: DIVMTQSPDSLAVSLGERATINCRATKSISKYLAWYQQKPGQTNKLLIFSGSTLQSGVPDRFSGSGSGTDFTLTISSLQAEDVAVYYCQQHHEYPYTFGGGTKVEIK VH: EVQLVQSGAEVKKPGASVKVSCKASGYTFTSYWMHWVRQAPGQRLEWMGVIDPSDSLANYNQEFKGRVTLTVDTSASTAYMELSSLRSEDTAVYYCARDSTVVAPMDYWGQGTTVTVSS | 10500

Let's switch to this binder now.
Reported MFI ( Hab006VL4VH1-hFc (scFv, part only; not given: scFv linker and human IgG1 Fc, V domains shown, not shown: another chain or arm of the molecule; a dimerising Fc or GST; small tags and cut ends) VL: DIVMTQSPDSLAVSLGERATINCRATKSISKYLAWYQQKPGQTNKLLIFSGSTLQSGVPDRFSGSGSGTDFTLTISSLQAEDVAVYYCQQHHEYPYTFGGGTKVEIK VH: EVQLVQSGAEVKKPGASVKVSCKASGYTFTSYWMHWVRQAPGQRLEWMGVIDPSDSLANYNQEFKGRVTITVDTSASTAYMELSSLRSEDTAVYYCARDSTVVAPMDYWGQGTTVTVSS ) = 10500
